target: human CTPS1 (Homo sapiens (Human), UniProt P17812)
Sequence (P17812 whole entry): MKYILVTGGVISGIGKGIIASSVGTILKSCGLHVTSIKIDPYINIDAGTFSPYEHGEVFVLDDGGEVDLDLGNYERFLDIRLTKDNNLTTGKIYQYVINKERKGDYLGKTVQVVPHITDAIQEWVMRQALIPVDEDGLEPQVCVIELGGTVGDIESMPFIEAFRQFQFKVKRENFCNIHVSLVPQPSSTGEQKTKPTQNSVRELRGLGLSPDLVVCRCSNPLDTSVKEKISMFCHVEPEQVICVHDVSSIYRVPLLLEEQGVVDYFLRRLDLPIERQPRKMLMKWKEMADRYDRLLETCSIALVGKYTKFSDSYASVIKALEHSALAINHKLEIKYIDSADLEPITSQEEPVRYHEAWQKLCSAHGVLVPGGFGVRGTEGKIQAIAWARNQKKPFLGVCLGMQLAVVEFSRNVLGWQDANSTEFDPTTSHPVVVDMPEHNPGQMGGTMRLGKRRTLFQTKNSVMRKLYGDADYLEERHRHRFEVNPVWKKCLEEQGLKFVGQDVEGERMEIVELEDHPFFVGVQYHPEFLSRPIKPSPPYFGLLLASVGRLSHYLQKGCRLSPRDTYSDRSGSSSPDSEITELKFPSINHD
pIC50: −log10 of the molar value.
measurement_kind: pIC50

# pIC50 of CCOc1cncc(-c2ccc(NC(=O)C3(c4ccnc(NS(=O)(=O)CC)n4)CCOCC3)nc2)n1 = ≥ 7.00

Hey, just so you know, these numbers are from patent US20250177394A1.
